variants and their reported one-hybrid fitness for binding parS DNA
B1: Caulobacter ParB omega fusion; a variant is named by its letters at X, in order, B8GW30 (parent)
chain: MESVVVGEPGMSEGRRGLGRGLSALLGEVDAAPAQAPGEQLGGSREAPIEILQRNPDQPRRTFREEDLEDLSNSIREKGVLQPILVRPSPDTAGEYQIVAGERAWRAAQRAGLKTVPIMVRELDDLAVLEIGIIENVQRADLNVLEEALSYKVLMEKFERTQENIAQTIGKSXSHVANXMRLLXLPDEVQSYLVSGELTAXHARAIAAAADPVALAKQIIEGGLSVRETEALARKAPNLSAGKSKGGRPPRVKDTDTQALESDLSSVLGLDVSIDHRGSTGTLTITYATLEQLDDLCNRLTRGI

# Variants of: B1
# EXPERIMENTAL_PROTOCOL: one-hybrid fitness for binding parS DNA (scaled: cognate 1, non-cognate 0); higher = stronger binding
# MEASUREMENT_CONTEXT: with parS DNA site
In all, about 81,000 sequences were measured (“one-hybrid fitness for binding parS DNA”: median about -0.17, highest 2% from about 0.51 on). For the sample, the highest values were picked, then their nearest neighbours and some sequences at random.
ATTRIBUTE_MEASURED: one-hybrid fitness for binding parS DNA

{"CHANGE": "PHSW", "ATTRIBUTE_MEASURED": "one-hybrid fitness for binding parS DNA", "RESULT": "≤ 0.2"}
{"CHANGE": "DFLG", "ATTRIBUTE_MEASURED": "one-hybrid fitness for binding parS DNA", "RESULT": "≤ 0.2"}
{"CHANGE": "RTNY", "ATTRIBUTE_MEASURED": "one-hybrid fitness for binding parS DNA", "RESULT": 0.659}
{"CHANGE": "MRHY", "ATTRIBUTE_MEASURED": "one-hybrid fitness for binding parS DNA", "RESULT": "≤ 0.2"}
{"CHANGE": "LPKC", "ATTRIBUTE_MEASURED": "one-hybrid fitness for binding parS DNA", "RESULT": "≤ 0.2"}
{"CHANGE": "IAED", "ATTRIBUTE_MEASURED": "one-hybrid fitness for binding parS DNA", "RESULT": "≤ 0.2"}
{"CHANGE": "RTYG", "ATTRIBUTE_MEASURED": "one-hybrid fitness for binding parS DNA", "RESULT": 1.02}
{"CHANGE": "RNIN", "ATTRIBUTE_MEASURED": "one-hybrid fitness for binding parS DNA", "RESULT": "≤ 0.2"}
{"CHANGE": "RNRP", "ATTRIBUTE_MEASURED": "one-hybrid fitness for binding parS DNA", "RESULT": "≤ 0.2"}
{"CHANGE": "RNRS", "ATTRIBUTE_MEASURED": "one-hybrid fitness for binding parS DNA", "RESULT": 0.961}
{"CHANGE": "KKGT", "ATTRIBUTE_MEASURED": "one-hybrid fitness for binding parS DNA", "RESULT": "≤ 0.2"}
{"CHANGE": "RSNY", "ATTRIBUTE_MEASURED": "one-hybrid fitness for binding parS DNA", "RESULT": 0.496}
{"CHANGE": "RFLG", "ATTRIBUTE_MEASURED": "one-hybrid fitness for binding parS DNA", "RESULT": 0.891}
{"CHANGE": "RNIS", "ATTRIBUTE_MEASURED": "one-hybrid fitness for binding parS DNA", "RESULT": 0.65}
{"CHANGE": "NTYG", "ATTRIBUTE_MEASURED": "one-hybrid fitness for binding parS DNA", "RESULT": "≤ 0.2"}
{"CHANGE": "RNRN", "ATTRIBUTE_MEASURED": "one-hybrid fitness for binding parS DNA", "RESULT": 0.371}
{"CHANGE": "TPGP", "ATTRIBUTE_MEASURED": "one-hybrid fitness for binding parS DNA", "RESULT": "≤ 0.2"}
{"CHANGE": "RFGG", "ATTRIBUTE_MEASURED": "one-hybrid fitness for binding parS DNA", "RESULT": 0.918}
{"CHANGE": "TVTH", "ATTRIBUTE_MEASURED": "one-hybrid fitness for binding parS DNA", "RESULT": "≤ 0.2"}
{"CHANGE": "FRKA", "ATTRIBUTE_MEASURED": "one-hybrid fitness for binding parS DNA", "RESULT": "≤ 0.2"}
{"CHANGE": "SCLF", "ATTRIBUTE_MEASURED": "one-hybrid fitness for binding parS DNA", "RESULT": "≤ 0.2"}
{"CHANGE": "QQQY", "ATTRIBUTE_MEASURED": "one-hybrid fitness for binding parS DNA", "RESULT": "≤ 0.2"}
